- methodDescription: S. pombe growth modifiers, basal conditions – strain 972, OD600, 24 h, no modulator, primary screen (AID 1090);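 also: basal condition with compound alone and no growth modifier present; test concentration not given here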
- assayContext: S. pombe 972 growth, higher = more signal, called active from +8 up or from −8 down
Reported z-score is given for each of the following compounds.
recordedMetric: z-score

[
  {
    "compound": "CC1(C)[C@@H]2CC(C(O)C3C=CC4C(=O)N(c5ccccc5)C(=O)C4N3Nc3ccccc3F)=C[C@@H]1C2 (some centres not stated)",
    "recordedMetric": "z-score",
    "measuredValue": 0.5
  },
  {
    "compound": "COC(=O)[C@@]1(Cc2ccc(OC)cc2)[C@H]2c3cc(C(=O)N4CCCC4)n(Cc4ccc(C)o4)c3C[C@H]2CN1C(=O)c1ccccc1",
    "recordedMetric": "z-score",
    "measuredValue": -15.7
  },
  {
    "compound": "C=CC[C@]1(C(=O)N2CCOCC2)N=C(c2ccc(OCCCO)cc2)O[C@H]1c1ccccc1CN=[N+]=[N-]",
    "recordedMetric": "z-score",
    "measuredValue": -1.63
  },
  {
    "compound": "C=CCC(OC(C)=O)[C@@H]1[C@@H](N(Cc2ccc(-c3ccccc3)cc2)C(=O)c2cccc3ccccc23)c2cc(OCCCO)ccc2N1C(=O)c1ccc2ccccc2n1 (some centres not stated)",
    "recordedMetric": "z-score",
    "measuredValue": -0.283
  },
  {
    "compound": "O=C1C2C=CC(C(O)c3ccccn3)N(Nc3ccccc3)C2C(=O)N1c1ccccc1 (configuration not stated)",
    "recordedMetric": "z-score",
    "measuredValue": 1.41
  },
  {
    "compound": "COC(=O)[C@@]1(Cc2ccccc2)[C@H]2c3cc(C(=O)N4CCCC4)n(Cc4ccc(OC(F)(F)F)cc4)c3C[C@H]2CN1C(=O)c1ccccc1",
    "recordedMetric": "z-score",
    "measuredValue": 1.5
  },
  {
    "compound": "CC(C)(C)N1CC=CC23O[C@@H]4C=CCCOC(=O)C4[C@H]2C(=O)N(CCCO)[C@@H]3C1=O (some centres not stated)",
    "recordedMetric": "z-score",
    "measuredValue": -0.37
  }
]

====

- methodDescription: optical density change of DRC41 E. coli – strain DRC41, OD650, 24 h, E. coli filamentation project, primary screen (AID 1093);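 also: MC1000 strain lacking acrAB efflux and sulA so SOS filamentation is blocked; test concentration not given here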
- assayContext: E. coli DRC41 growth, higher = more signal, called active from +8 up or from −8 down
Reported z-score is given for each of the following compounds.

[
  {
    "compound": "COc1ccc(C#Cc2ccc3c(c2)[C@]2(C(=O)N3)[C@H](C(=O)O)[C@H]3C(=O)O[C@H](c4ccccc4)[C@H](c4ccccc4)N3[C@@H]2c2ccc(OCCO)cc2)cc1",
    "z-score": 2.26
  },
  {
    "compound": "C[C@]12C(=O)N(CCCO)[C@@H]3C(=O)N(c4ccc(Cl)cc4)CC=CC31O[C@@H]1/C=C\\CCCOC(=O)C12 (stereo partly drawn)",
    "z-score": -0.298
  },
  {
    "compound": "COCC(=C=CC[C@@H](O)c1ccccc1OCCO)C[C@@H](O)c1ccccn1",
    "z-score": -0.224
  },
  {
    "compound": "Cc1ccc(C(C)CC(O)C2C=CC3C(=O)N(Cc4ccccc4)C(=O)C3N2n2cnnc2)o1 (stereo not drawn)",
    "z-score": -1.56
  },
  {
    "compound": "COc1cc(NN2C(C(O)c3ccc(I)cc3)C=CC3C(=O)N(C)C(=O)C32)cc(OC)c1OC (stereo not drawn)",
    "z-score": 0.202
  },
  {
    "compound": "COCCOC(=O)N1C(=O)[C@@]2(c3cc(C#CCNC(N)=O)ccc31)[C@H](C(=O)N1CCCCCCC1)[C@H]1C(=O)O[C@H](c3ccccc3)[C@H](c3ccccc3)N1[C@@H]2c1ccc(OCCO)cc1",
    "z-score": -0.299
  },
  {
    "compound": "C[N+](C)(C)CCCCCCNC(=O)[C@@H]1C[C@@H]2C(=O)NCC(=O)N2[C@@H]1c1ccc(O)cc1",
    "z-score": -0.239
  },
  {
    "compound": "COc1ccccc1CN1C(=O)c2ccccc2[C@](Cc2ccccc2I)(C(=O)NCCN2CCOCC2)[C@@H]1c1ccc(CO)cc1",
    "z-score": 0.0429
  },
  {
    "compound": "C=CCOC(=O)[C@@H]1[C@H]2C(=O)O[C@H](c3ccccc3)[C@H](c3ccccc3)N2[C@H](c2ccc(OCCOC(=O)[C@H]3C[C@H]4C(=O)N[C@@H](Cc5ccccc5)C(=O)N4[C@H]3c3cccc(OCCO)c3)cc2)[C@@]12C(=O)Nc1ccc(I)cc12",
    "z-score": -1.07
  },
  {
    "compound": "COc1ccccc1CN1C(=O)c2ccccc2[C@@H](C(=O)NCC(C)C)[C@@H]1c1ccc(CO)cc1",
    "z-score": 0.0616
  },
  {
    "compound": "CCOC(=O)C[C@H]1[C@H](OC(=O)Cc2ccc3c(c2)OCO3)[C@@H](NC(=O)c2ccccc2)c2cc(OCCCO)ccc2N1C(=O)c1ccc2ccccc2n1",
    "z-score": 1.45
  },
  {
    "compound": "C=C(COC)/C(=C/C[C@@H](OC(=O)c1ccncc1)c1cccc(OCCO)c1)c1cc(C(=O)OC)ccc1OC",
    "z-score": 0.625
  },
  {
    "compound": "COc1ccc([Si](C)(C)[C@@H]2[C@@H](CC(=O)N3Cc4ccccc4C[C@H]3CO)O[C@]3(C(=O)N(Cc4cccc(N5CCCCC5=O)c4)c4ccccc43)[C@H]2C)cc1",
    "z-score": 0.73
  }
]

====

- methodDescription: resazurin metabolic signal in HepG2 cells – cell-based, resazurin fluorescence, 24 h, PK04 Diversity Set, profiling panel (AID 1172); also: test concentration not given here
- assayContext: HepG2 viability, higher = more signal

[
  {
    "compound": "COc1cc2c(cc1OC)CN(C(=O)[C@@H]1[C@H]3C(=O)O[C@H](c4ccccc4)[C@H](c4ccccc4)N3[C@H](c3ccc(OCCO)cc3)[C@@]13C(=O)Nc1ccc(C#CCCO)cc13)CC2",
    "z-score": -0.0794
  },
  {
    "compound": "C=CCC(OC(C)=O)[C@@H]1[C@@H](N(Cc2cc3ccccc3o2)C(=O)Cc2ccc(OC)cc2)c2cc(OCCCO)ccc2N1C(=O)c1ccc(-c2ccccc2)cc1 (some centres undefined)",
    "z-score": -0.877
  },
  {
    "compound": "CCOC(=O)C1=CC[C@@H](c2ccccc2)N(S(=O)(=O)c2ccc(C)cc2)[C@H]1C=C(C)C",
    "z-score": 0.576
  },
  {
    "compound": "COC(=O)[C@@]1(Cc2ccc(F)cc2)[C@H]2c3cc(C(=O)N(C)C)n(Cc4ccc(C)c(F)c4F)c3C[C@H]2CN1C(=O)c1ccccc1",
    "z-score": 0.245
  },
  {
    "compound": "CCCCC=C[C@@H](NC(=O)CCc1ccccc1)c1ccccc1",
    "z-score": -1.61
  },
  {
    "compound": "C=CCN1C(=O)[C@@]2(O[C@@H](CCO)[C@H]([Si](C)(C)c3ccc(OC)cc3)[C@H]2C)c2cc(NC(=O)[C@H](C)O)ccc21",
    "z-score": -1.15
  },
  {
    "compound": "COCCCNC(=O)[C@@H]1c2ccccc2C(=O)N(Cc2cc(F)cc(C(F)(F)F)c2)[C@H]1c1ccc(CO)cc1",
    "z-score": -0.434
  },
  {
    "compound": "CCCNC(=O)[C@@]1(Sc2ccc(C)cc2)CC(=O)N(Cc2ccccc2)[C@@H]1c1ccc(CO)cc1I",
    "z-score": -0.38
  },
  {
    "compound": "CC(C)CCC[C@@H](C)[C@H]1CC[C@@]2(C)C3=C(CC[C@]12C)[C@@]1(C)CC[C@H](OC(=O)C(C)(C)C)C(C)(C)C1CC3 (some centres undefined)",
    "z-score": 0.411
  },
  {
    "compound": "O=C(N1CCOCC1)[C@@]1(CCS(=O)(=O)c2ccccc2)COC(c2ccc(OCCCO)cc2)=N1",
    "z-score": 0.0754
  },
  {
    "compound": "C=CCOC(=O)[C@@H]1[C@H]2C(=O)O[C@H](c3ccccc3)[C@H](c3ccccc3)N2[C@H](c2ccc(OCCOC(=O)[C@H]3C[C@H]4C(=O)N[C@@H](Cc5ccccc5)C(=O)N4[C@H]3c3cccc(OCCO)c3)cc2)[C@@]12C(=O)Nc1ccc(I)cc12",
    "z-score": -0.208
  },
  {
    "compound": "CCCNC(=O)[C@@H]1c2ccccc2C(=O)N(CC23CC4CC(CC(C4)C2)C3)[C@H]1c1ccc(CO)cc1",
    "z-score": -0.411
  },
  {
    "compound": "CCCCC(O)C1C=CC2C(=O)N(Cc3ccccc3)C(=O)C2N1n1cnnc1 (centres undefined)",
    "z-score": -1.23
  },
  {
    "compound": "O=C1O[C@H](c2ccccc2)[C@H](c2ccccc2)N2[C@H]1[C@@H](C(=O)N1CCCCCCC1)[C@]1(C(=O)Nc3ccc(C#CCCO)cc31)[C@H]2c1ccc(OCCO)cc1",
    "z-score": 1.08
  }
]

src = PubChem BioAssay
